# Tested on: velvetleaf
# RUN_DESCRIPTION: Test C postemergence
# Assay type: in vivo, Abutilon theophrasti
# CONDITION_DESCRIPTION: 125 g ai/ha, postemergence; visual rating, scale 0 to 100 (0 no effect, 100 complete control)
# if value of Plant response rating, Velvetleaf reaches 40, tag 1; if it stays below, tag 0

These recorded examples may help you get a feel for the data.
> print(dat)
                                        smi  class.label
1  N#Cc1cccc(Oc2ncc(Cl)cn2)c1-n1cc(-n2ccc(C(F)(F)F)n2)cn1            0
2  N#Cc1cnn(-c2c(Oc3ncc(Cl)cn3)cccc2C(F)F)c1            1
3  FC(F)(F)c1cnn(-c2c(Cl)cccc2Oc2ncc(Cl)cn2)c1            1

Task: API: above_or_equal(metric=Plant response rating, Velvetleaf, cutoff=40) for item Cc1cnc(Oc2cccc(C#N)c2-n2cc(I)cn2)nc1
Output: 0

Task: Record N#Cc1cn(-c2c(Br)cccc2Oc2ncc(Cl)cn2)nn1 ; criterion: Plant response rating, Velvetleaf no lower than 40. Met?
Output: 1
